Ref: ChEMBL document CHEMBL4011594

- Tested on: Human immunodeficiency virus 1
- Assay remarks: Inhibition of HIV-1 integrase strand transfer activity assessed as reduction in viral replication in presence of 50% normal human serum
Result type: IP (nM)

Before answering, review these 3 worked examples.
Cc1ccc2c(c1)C1(CC2)NC(=O)c2c3c(c(O)c(=O)n21)C(=O)N(Cc1ccc(F)c(Cl)c1)CC3 (racemic) :: 230
CN(CCN1C(=O)c2c3c(c(O)c(=O)n2C12CCC1CC12)C(=O)N(Cc1ccc(F)c(Cl)c1)CC3)S(C)(=O)=O (configuration not stated) :: 150
Cc1ccc2c(c1)CCC21NC(=O)c2c3c(c(O)c(=O)n21)C(=O)N(Cc1ccc(F)c(Cl)c1)CC3 (racemic) :: 240

I = COc1ccnc2c1C1(CC2)NC(=O)c2c3c(c(O)c(=O)n21)C(=O)N(Cc1ccc(F)c(Cl)c1)CC3 (racemic)
II = O=C1c2c(c3n(c(=O)c2O)C2(CCC4CC42)N(CCN2CCCS2(=O)=O)C3=O)CCN1Cc1ccc(F)c(Cl)c1 (configuration not stated)
III = CC1CCC2(C1)NC(=O)c1c3c(c(O)c(=O)n12)C(=O)N(Cc1ccc(F)c(Cl)c1)CC3 (racemic)
Input line: Arrange the 3 compounds from largest to smallest IP. Ranked list of labels, please, in the requested order.
Output line: III, II, I
(III: 700 nM, II: 170 nM, I: 74 nM)
